B1: LINE1-full (parent)
chain: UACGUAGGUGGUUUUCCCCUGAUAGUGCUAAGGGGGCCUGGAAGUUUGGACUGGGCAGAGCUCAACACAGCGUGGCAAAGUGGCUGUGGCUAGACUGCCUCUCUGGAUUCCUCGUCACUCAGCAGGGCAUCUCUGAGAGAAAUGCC

# Variants of: B1
# ASSAY_NAME: self-cleavage, relative activity (ratio to wild type); higher = more cleavage; in vitro, sequencing; the parent is a self-cleaving ribozyme
Items are presented alongside their recorded self-cleavage.
Lab note: jot the number down without any unit.

Examples from the recorded data:
[
  {
    "CHANGE": "C128U A136U",
    "PARAMETER_MEASURED": "self-cleavage",
    "RECORDED_MEASUREMENT": 1.67
  },
  {
    "CHANGE": "C76G",
    "PARAMETER_MEASURED": "self-cleavage",
    "RECORDED_MEASUREMENT": 2.01
  },
  {
    "CHANGE": "U26C G70A",
    "PARAMETER_MEASURED": "self-cleavage",
    "RECORDED_MEASUREMENT": 0.14
  }
]

Query: For the variant U12G , report self-cleavage.
Result: 1.13

Query: For the variant U9C A92C , report self-cleavage.
Result: 0.48

These measurements were taken from the RNAGym collection of RNA variant scans (doi:10.7554/elife.90254).
